# Test system: COLO 205
# experimentalDetails: Cytotoxicity against human COLO 205 cells measured after 24 hrs by MTT assay
# Assay type: functional, cell-based
# experimentalSetup: COLO 205, 24 h
metric: IC50 (nM)
Give your result in nM as a bare value.

COc1ccc(C(=O)n2c3ccccc3c3ccnc(-c4cc(-c5ccc(-c6nc7ccccc7s6)cc5)no4)c32)c(OC)c1OC
640

Next, consider the following compound.
### Prompt Specify reported IC50 for the compound shown: `COc1cc2nc(-c3nc(-c4nccc5c4[nH]c4ccccc45)cs3)[nH]c2cc1OC`
### Response 340

----------
# System: HCT-116
# experimentalDetails: Antiproliferative activity against human HCT-116 cells assessed as cell viability incubated for 24 hrs by MTT assay
# Assay type: functional, cell-based
# experimentalSetup: HCT-116, 24 h
metric: IC50 (µM)
Give your result in µM as a bare value.

### Prompt Specify reported IC50 for the compound shown: `Cc1nccc2c3ccccc3n(CCCCn3c4ccccc4c4ccnc(C)c43)c12`
### Response 5.09

----------
# Tested on: 769-P
# experimentalDetails: Cytotoxicity against human 769-P cells assessed as cell viability incubated for 1 hr by spectrophotometry
# Format: functional, cell-based
metric: IC50

### Prompt Specify reported IC50 for the compound shown: `COc1ccc(/C=C/c2c3c(cc[n+]2Cc2ccccc2)c2ccccc2n3CCCc2ccccc2)cc1`
### Response < 5 µM

----------
# Test system: Huh-7
# experimentalDetails: Cytotoxicity against human Huh-7 cells
# Format: functional, cell-based
metric: pIC50
Give only the number. pIC50 is defined as minus log10 of concentration in molar units.

### Prompt Specify reported pIC50 for the molecule shown: `Cc1ccc(-c2nc(NCc3ccc(C(=O)NO)cc3)cc3c2[nH]c2ccccc23)cc1`
### Response 6.28

----------
# Tested on: SK-OV-3
# experimentalDetails: Antiproliferative activity against human SK-OV-3 cells
# Assay type: functional, cell-based
Examples of compounds with documented IC50 follow.
Give your result in µg/mL as a bare value.

Reference set, count: 2
C=Cc1ncc(OC)c2c1[nH]c1ccccc12
15.7
COc1nccc2c1[nH]c1ccccc12
22.3

Next, consider the following compound.
### Prompt Specify reported IC50 for the compound shown: `C=Cc1ncc(OC)c2c1[nH]c1c(OC)cccc12`
### Response 11.9

----------
# Tested on: LNCaP
# experimentalDetails: Cytotoxicity against human LNCaP cells
# Type: functional, cell-based
Examples of compounds with documented IC50 follow.
Give your result in nM as a bare value.

O=c1cc2c3ccccc3n3c(=O)ccc([nH]1)c23
506

Next, consider the following compound.
### Prompt Specify reported IC50 for the compound shown: `COc1cc2c3ccccc3n3c(=O)ccc(n1)c23`
### Response 503

----------
# System: SMMC-7721
# experimentalDetails: Cytotoxicity against human SMMC-7721 cells measured after 72 hrs by MTT assay
# Format: functional, cell-based
# experimentalSetup: SMMC-7721, 72 h
metric: IC50 (nM)
Give your result in nM as a bare value.

### Prompt Write down the reported IC50 (system: SMMC-7721) of `CN(C)c1ccc(-c2nc(C(=O)NCc3ccc(/C=C/C(=O)NO)cc3)cc3c2[nH]c2ccccc23)cc1`
### Response 1840

----------
Examples of compounds with documented IC50 follow.
# Test system: A549
# experimentalDetails: Cytotoxicity against human A549 cells
# Type: functional, cell-based
Give your result in µM as a bare value.

Reference set, count: 2
CC(=O)c1nc(C(=O)NCCc2ccc(O)cc2)cc2c1[nH]c1ccccc12
37.9
Nc1nccc(-c2nccc3c2[nH]c2c([C@@H]4c5ccccc5N=C5[C@@H](O)CCN54)c(O)ccc23)n1
55.7

Next, consider the following compound.
### Prompt Specify reported IC50 for the compound shown: `COc1ccccc1-c1c(-c2ccccc2)ncc2[nH]c3ccccc3c12`
### Response 8.2
